Reported soluble fraction (log2) values follow for various sequences
test: soluble fraction after stress (log2 fold change); higher = more stays soluble; pooled small domains, quantitative proteomics; settings: stress: pH 4

| sequence.string | soluble fraction (log2) |
| --- | --- |
| HMYFNTADLKADSIHYGSTEQSVIKILGEPEYRETFVDNNVSYELFSYKGNLLLSFVENSLVSL | -0.0269 |
| HMYPGQILEIYLDEIKRLYLNGLSSADIFAEIKEGSIPSVKKAIRSMKDGSAPVKITEAEESTRIAPS | -0.785 |
| HMDFEEGAVKWFNTKKGYGFITRDQGDDIFVHFRNIKAQSRRSLTDGERVTFVVTEGDKGLQADHVSPV | -0.886 |
| HMSSEASALRGWLQTSQYQGSVTLFANALNVPLKTVEDWVYGRSKPSLQHWSQLYEATGLPEYQQ | 0.0888 |

---

test: soluble fraction after stress (log2 fold change); higher = more stays soluble; pooled small domains, quantitative proteomics; settings: stress: pH 4
Reported soluble fraction (log2) values follow for various sequences

| sequence.string | soluble fraction (log2) |
| --- | --- |
| HMRLSVRQRMSDVLGALKTQAFVEFTQLFRPQEGRMGVTVTFSAILELLREGLIEIVQSEPFAPIHVRAGA | 0.22 |
| HMTTHEQVAILRRELNGLVGAWHHRTGQAHGVTHSKLRKELGGPPAAVASAAQLSARIEKIRQWAT | -0.0306 |
| HMKIYDQVVDRIKDRISKGDMPQGSALPPERQLIDELNVSRSSLREGFRILEMMGLIESIPGKGRFVRTSR | -0.619 |
| HMEDIQPSVIFQNNMIDGFKKFGVSFLQNRRNVNVNTLNGLASAGTYPKWQQLLVNKISYIDMLLSTGG | -0.137 |
| HMNSRQPEEEALFELLAKNPYSDEQLEEIRIAIGSGISYKDVLVIADIKNTAKQMKKLRLKFTKDTG | 0.118 |
| HMGGLAHPASGEEMEHLFAHLEGELLKSGFLFPPDKAAGMMRNIRAMLTRADFTDQEVRTLRGMIVALSRG | -0.794 |
| HMAQNILPGQKNAIKSLATSAGFSQQELDSYLSQNYGKTLNNLSQKEGASLISGLQDGSIKKP | 0.0359 |
| HMDKSNEVLMNHYRKQEINQAKKRLEEEKMSIIQVLQLTNKEVITTDELLEALYISKEQLLDEIINTTQ | -1.02 |
| HMHGEAEFLDATAVVMEKLNPGGLVKIKGEIWQAVSKDGHTIQEGEKVRVFERQGITLLVGHF | -0.223 |
| HMIQTMVVTDLKNGTIFKENGHPFIVLKYEHIKVSRGSAQVRVKMKNLITGQVLEKSWQSTAHVDDT | 0.186 |

---

experiment: soluble fraction after stress (log2 fold change); higher = more stays soluble; pooled small domains, quantitative proteomics; conditions: stress: pH 4
observation.type: soluble fraction (log2)

| sequence.string | observation.type | value.measured |
| --- | --- | --- |
| HMGAVPKNYFPAVEKGLQDSVQKGLLAGYPVVGVKAILYDGSYHPVDSSEMAFKTATIQAFKKGFMEA | soluble fraction (log2) | -0.0216 |
| HMTPQDYEYLRKLLKDQSGLDLSVDKQYLLESRLVPLSRKAGLAGIPELVQKMKAGSASLTAQVVEAMTT | soluble fraction (log2) | 0.07 |
| HMIILYTDEQQRIIDRLNEFIGEQPSQNEAAKLLGISAPILTNLRKGTYTGTVDKFMNKLAAYFNIKADLG | soluble fraction (log2) | -0.372 |
| HMPKAKASARNDTRTRLLTIGTEVLSQKGFASTGVEEILSVAGVPKGAFYYYFESKAAFGLAVIENYE | soluble fraction (log2) | 0.22 |
| HMDDEDLAFLQREFVSYQQAMDYYGLGYKPVVRLSHISGSVYKIGKKVLIRRNIFEEYLRNHV | soluble fraction (log2) | -0.666 |
| HMSKKIVLPAAITVKKFSETLDMPLGTVISELMKNGILATINERIDFETASIIAQDLGYEVSEEV | soluble fraction (log2) | 0.0626 |
| HMQATDEEIENFTSSAITAYKLTKEEGYIISMRDMKPIMEIVKTEYPMANGKVVSKVMNNYING | soluble fraction (log2) | 0.22 |
| HMLALVREQIERNVSNPTDEDIRKIRHDVMEVITRAGADAATVDIAIEIDSQKNILRAIATGATEL | soluble fraction (log2) | -1 |
| HMGEVEVPDLVGIEAIQAKTLLFNSDFLIKEFYDYDPTQPIGVVIRQAPEAGTTQTIGDSVTITINRA | soluble fraction (log2) | -0.0721 |
| HMGPPAVGSKLQDARKAQQLSLDELSKRAGVSKSMLSEVERNQANPTVGVLWRLATALGISLTDLLG | soluble fraction (log2) | -0.549 |
